System: ATP;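 note: ATP exposure 15 min at 22 °C before imaging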
TEST METHOD NOTES: switch fluorescence ratio, 500 uM ATP over buffer (Cy3 cluster intensity, sum of 5 cycles each) (fold (ratio)); higher = stronger signal-on switching upon ATP binding; sequences stand for … in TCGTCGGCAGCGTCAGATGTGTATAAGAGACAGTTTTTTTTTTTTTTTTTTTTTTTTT…TC
PROTOCOL CONDITIONS: aptamer strand: ATP DNA aptamer (quencher-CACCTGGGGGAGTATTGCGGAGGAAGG + anchor), 100 nM annealed; ATP concentration: 500 uM
Reported switch fluorescence ratio is given for each of the following sequences.
ENDPOINT LABEL: switch fluorescence ratio

1) AGCTAGCGTT; 0.997
2) AGCGTCAGCC; 0.99
3) ATCAGAGCCG; 0.98
